Observed Ki values for Carbonic anhydrase 12 (Homo sapiens) are listed in what follows.
MEASURE_NAME: Ki

1) O=C(O)c1cccc(O)c1 [3-HYDROXYBENZOIC ACID] : 3.53 µM
2) COc1ccc(C(=O)O)cc1OC : 6.7 µM
3) O=C(O)c1cc(O)cc(O)c1 [3,5-DIHYDROXYBENZOIC ACID] : 3.67 µM
4) O=C(O)c1ccc(O)c(O)c1 : 4.09 µM

----------
Observed pKi values for Carbonic anhydrase 9 (Homo sapiens, UniProt Q16790) are listed in what follows.
pKi: −log10 of the molar value.
MEASURE_NAME: pKi

1) O=C(O)c1cc(O)cc(O)c1 [3,5-DIHYDROXYBENZOIC ACID] : 5.36
2) O=C(O)c1ccc(O)c(O)c1 [PROTOCATECHUIC ACID] : 5.35
3) O=C(O)c1cccc(O)c1 [3-HYDROXYBENZOIC ACID] : 5.34
4) COc1ccc(C(=O)O)cc1OC [VERATRIC ACID] : 5.08
5) COc1ccc(OC)c(OC)c1 [1,2,4-TRIMETHOXYBENZENE] : 5.39
